Tested on: MDCK
Assay: Cytotoxicity against dog MDCK cells assessed as modification of cell multiplication rate incubated for 24 hrs followed by compound wash out measured after 24 hrs by cell counting analysis
Format: cell-based, Canis lupus familiaris
measurementName: Activity

Use these answered entries as a reference point.
> print(dat)
                                 testsmiles               measured
1       O=C(/C=C/c1ccc(O)c(O)c1)c1ccc(O)cc1  Dose-dependent effect
2         O=C(/C=C/c1ccc(O)cc1)c1ccc(O)cc1O              Non-toxic
3          O=C(/C=C/c1ccc(O)c(O)c1)c1ccccc1  Dose-dependent effect
4      COc1ccc(C(=O)/C=C/c2ccc(F)cc2)c(O)c1  Dose-dependent effect
5  O=C1/C(=C/c2ccc(O)c(O)c2)COC/C1=C\c1ccc(O)c(O)c1              Non-toxic

Please report Activity for every entry that follows.
1. O=C1/C(=C/c2ccc(O)c(O)c2)CCC/C1=C\c1ccc(O)c(O)c1
2. O=C(/C=C/c1cc(O)cc(O)c1)c1ccc(O)cc1
3. COc1ccc(/C=C/C(=O)c2ccc(O)cc2O)cc1
4. O=C(/C=C/c1ccc(O)c(O)c1)/C=C/c1ccc(O)c(O)c1
5. Nc1cccc(C(=O)/C=C/c2ccc(O)c(O)c2)c1
6. O=C(/C=C/c1ccc(Cl)cc1)c1ccccc1O

["Dose-dependent effect", "Dose-dependent effect", "Dose-dependent effect", "Dose-dependent effect", "Dose-dependent effect", "Non-toxic"]

###

Tested on: MDCK
Test: Cytotoxicity against dog MDCK cells assessed as morphological alterations incubated for 24 hrs followed by compound wash out measured after 24 hrs by microscopic analysis
Type: cell-based, Canis lupus familiaris
measurementName: Activity

> print(dat)
                                   compound               measured
1  CCOC(=O)C1C/C(=C\c2ccc(O)c(O)c2)C(=O)/C(=C/c2ccc(O)c(O)c2)C1 (centres undefined)  Dose-dependent effect
2  O=C1/C(=C/c2ccc(O)c(O)c2)CCC/C1=C\c1ccc(O)c(O)c1  Dose-dependent effect
3       Nc1cccc(C(=O)/C=C/c2ccc(O)c(O)c2)c1  Dose-dependent effect

###

System: MDCK
Assay: Cytotoxicity against dog MDCK cells assessed as loss of cell viability incubated for 24 hrs followed by compound wash out measured after 24 hrs by trypan blue exclusion assay
Type: cell-based, Canis lupus familiaris
measurementName: Activity

> print(dat)
                                   compound               measured
1       Nc1cccc(C(=O)/C=C/c2ccc(O)c(O)c2)c1  Dose-dependent effect
2      COc1ccc(C(=O)/C=C/c2ccc(F)cc2)c(O)c1  Dose-dependent effect
3          O=C(/C=C/c1ccc(O)c(O)c1)c1ccccc1  Dose-dependent effect
4  CCOC(=O)C1C/C(=C\c2ccc(O)c(O)c2)C(=O)/C(=C/c2ccc(O)c(O)c2)C1 (stereo unspecified)  Dose-dependent effect
5  O=C(/C=C/c1ccc(O)c(O)c1)/C=C/c1ccc(O)c(O)c1  Dose-dependent effect
6  O=C(/C=C/c1ccc(O)cc1)c1ccc(O)cc1O [ISOLIQUIRITIGENIN]              Non-toxic

Please report Activity for every entry that follows.
1. CCCN1C/C(=C\c2ccc(O)c(O)c2)C(=O)/C(=C/c2ccc(O)c(O)c2)C1
2. O=C1/C(=C/c2ccc(O)c(O)c2)COC/C1=C\c1ccc(O)c(O)c1
3. O=C1/C(=C/c2ccc(O)c(O)c2)CCC/C1=C\c1ccc(O)c(O)c1
4. O=C(/C=C/c1ccc(Cl)cc1)c1ccccc1O
5. O=C(/C=C/c1ccc(O)c(O)c1)c1ccc(O)cc1O [BUTEIN]
6. O=C(/C=C/c1cc(O)cc(O)c1)c1ccc(O)cc1
7. O=C(/C=C/c1ccc(O)c(O)c1)c1ccc(O)cc1

1. Dose-dependent effect
2. Non-toxic
3. Dose-dependent effect
4. Non-toxic
5. Dose-dependent effect
6. Dose-dependent effect
7. Dose-dependent effect

Please report Activity for every entry that follows.
1. COc1ccc(/C=C/C(=O)c2ccc(O)cc2O)cc1
2. O=C(/C=C/c1ccc(O)cc1)c1cc(O)cc(O)c1

1: Dose-dependent effect; 2: Non-toxic

Activity of `Cc1ccc(/C=C/C(=O)c2ccc(O)cc2O)cc1` on MDCK?
Dose-dependent effect

###

Tested on: MDCK
Experiment: Cytotoxicity against dog MDCK cells assessed as morphological alterations incubated for 24 hrs followed by compound wash out measured after 24 hrs by microscopic analysis
Assay type: cell-based, Canis lupus familiaris
measurementName: Activity

Use these answered entries as a reference point.
> print(dat)
                                   molecule  measurementname               measured
1       O=C(/C=C/c1ccc(O)c(O)c1)c1ccc(O)cc1         Activity  Dose-dependent effect
2       O=C(/C=C/c1ccc(O)cc1)c1cc(O)cc(O)c1         Activity              Non-toxic
3  O=C(/C=C/c1ccc(O)c(O)c1)c1ccc(O)cc1O [BUTEIN]         Activity  Dose-dependent effect
4         Cc1ccc(/C=C/C(=O)c2ccc(O)cc2O)cc1         Activity  Dose-dependent effect
5          O=C(/C=C/c1ccc(O)c(O)c1)c1ccccc1         Activity  Dose-dependent effect
6  O=C(/C=C/c1ccc(O)c(O)c1)/C=C/c1ccc(O)c(O)c1         Activity  Dose-dependent effect

Please report Activity for every entry that follows.
1. COc1ccc(/C=C/C(=O)c2ccc(O)cc2O)cc1
2. O=C(/C=C/c1ccc(O)cc1)c1ccc(O)cc1O [ISOLIQUIRITIGENIN]

1. Dose-dependent effect
2. Non-toxic

###

System: MDCK
Test: Cytotoxicity against dog MDCK cells assessed as morphological alterations incubated for 24 hrs followed by compound wash out measured after 24 hrs by microscopic analysis
Type: cell-based, Canis lupus familiaris
measurementName: Activity

> print(dat)
                                 testsmiles  measurementname               measured
1  CCCN1C/C(=C\c2ccc(O)c(O)c2)C(=O)/C(=C/c2ccc(O)c(O)c2)C1         Activity  Dose-dependent effect
2       O=C(/C=C/c1cc(O)cc(O)c1)c1ccc(O)cc1         Activity  Dose-dependent effect
3      COc1ccc(C(=O)/C=C/c2ccc(F)cc2)c(O)c1         Activity  Dose-dependent effect
